Quick reference for Compound concentration: DTTA among some molecules
Test: Test on the solubility in a simulated body fluid
Assay type: physicochemical
Settings: 0.01 M PBS pH 7.4, 37° C., 30 min
quantity_measured: Compound concentration: DTTA (mM)

molecule="CCCN1CCCC[C@H]1C(=O)Nc1c(C)cccc1C.Cc1ccc(C(=O)OC(C(=O)O)C(OC(=O)c2ccc(C)cc2)C(=O)O)cc1 (stereo not shown) [Preparation Example 5, mono(ropivacaine) di-p-toluoyl tartarate]" value_observed=6.7040
molecule="CCCCN1CCCCC1C(=O)Nc1c(C)cccc1C.CCCCN1CCCCC1C(=O)Nc1c(C)cccc1C.Cc1ccc(C(=O)OC(C(=O)O)C(OC(=O)c2ccc(C)cc2)C(=O)O)cc1 (stereo not shown) [Preparation Example 4, bis(bupivacaine) di-p-toluoyl tartarate]" value_observed=5.1350
molecule="CCCCN1CCCCC1C(=O)Nc1c(C)cccc1C.Cc1ccc(C(=O)OC(C(=O)O)C(OC(=O)c2ccc(C)cc2)C(=O)O)cc1 (stereo not shown) [Preparation Example 3, mono(bupivacaine) di-p-toluoyl tartarate]" value_observed=7.0122
molecule="CCCN1CCCC[C@H]1C(=O)Nc1c(C)cccc1C.CCCN1CCCC[C@H]1C(=O)Nc1c(C)cccc1C.Cc1ccc(C(=O)OC(C(=O)O)C(OC(=O)c2ccc(C)cc2)C(=O)O)cc1 (stereo not shown) [Preparation Example 6, bis(ropivacaine) di-p-toluoyl tartarate]" value_observed=18.5864
